- System tested: Cyno BCMA
- Test details: Kinetics and affinity of cyno BCMA/human IgG interactions by SPR (Bio-Rad Proteon XPR36)
- Format: binding, cynomolgus
- Condition context: 37° C.
Measure name: kd Cyno (s⁻¹)
Numbers only; they are read as s⁻¹.

Some molecules with recorded kd Cyno:
Molecule	Reported result
COMBO_Rd4_6 nM_C10: anti-BCMA antibody (antibody, V domains shown) VH: EVQLLESGGGLVQPGGSLRLSCAASGFTFSSYPMSWVRQAPGKGLEWVSAIGGSGGSIHYADSVKGRFTISRDNSKNTLYLQMNSLRAEDTAVYYCARYWPMDSWGQGTLVTVSS VL: EIVLTQSPGTLSLSPGERATLSCRASQSVSSSYWGWYQQKPGQAPRLLMYDASIRATGIPDRFSGSGSGTDFTLTISRLEPEDFAVYYCQQYQCWPLTFGQGTKVEIK	0.00016
COMBO_Rd4_6 nM_C21: anti-BCMA antibody (antibody, V domains shown) VH: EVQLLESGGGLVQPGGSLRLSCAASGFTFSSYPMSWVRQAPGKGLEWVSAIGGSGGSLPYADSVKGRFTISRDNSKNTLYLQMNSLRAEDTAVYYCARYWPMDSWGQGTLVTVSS VL: EIVLTQSPGTLSLSPGERATLSCRASQSVSAAYLAWYQQKPGQAPRLLMYDASIRATGIPDRFSGSGSGTDFTLTISRLEPEDFAVYYCQQYMCWPLTFGQGTKVEIK	0.000248
A02_Rd4_6 nM_C05: anti-BCMA antibody (antibody, V domains shown) VH: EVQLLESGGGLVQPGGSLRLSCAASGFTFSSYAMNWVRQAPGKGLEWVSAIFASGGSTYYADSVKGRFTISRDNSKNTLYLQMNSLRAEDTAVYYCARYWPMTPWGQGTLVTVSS VL: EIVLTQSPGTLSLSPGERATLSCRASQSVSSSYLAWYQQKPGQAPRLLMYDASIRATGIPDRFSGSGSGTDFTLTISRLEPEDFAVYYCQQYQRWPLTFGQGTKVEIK	0.00129
A02_Rd4_6 nM_C26: anti-BCMA antibody (antibody, V domains shown) VH: EVQLLESGGGLVQPGGSLRLSCAASGFTFSSYAMNWVRQAPGKGLEWVSAISDSGGSTYYADSVKGRFTISRDNSKNTLYLQMNSLRAEDTAVYYCARYWPMSLWGQGTLVTVSS VL: EIVLTQSPGTLSLSPGERATLSCRASQSVSSLYLAWYQQKPGQAPRLLMYDASIRATGIPDRFSGSGSGTDFTLTISRLEPEDFAVYYCQQYQVWPLTFGQGTKVEIK	0.000448
COMBO_Rd4_0.6 nM_C04: anti-BCMA antibody (antibody, V domains shown) VH: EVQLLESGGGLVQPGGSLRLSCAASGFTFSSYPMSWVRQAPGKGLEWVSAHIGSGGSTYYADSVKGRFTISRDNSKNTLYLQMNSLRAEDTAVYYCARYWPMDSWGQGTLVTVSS VL: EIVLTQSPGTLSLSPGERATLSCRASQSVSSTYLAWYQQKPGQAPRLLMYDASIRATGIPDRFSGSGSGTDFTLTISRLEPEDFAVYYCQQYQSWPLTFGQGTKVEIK	0.000137
COMBO_Rd4_0.6 nM_C17: anti-BCMA antibody (antibody, V domains shown) VH: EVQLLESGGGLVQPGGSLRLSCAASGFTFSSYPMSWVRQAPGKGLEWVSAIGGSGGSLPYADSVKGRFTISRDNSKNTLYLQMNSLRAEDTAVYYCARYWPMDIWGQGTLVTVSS VL: EIVLTQSPGTLSLSPGERATLSCRASQGISSTYLAWYQQKPGQAPRLLMYDASIRATGIPDRFSGSGSGTDFTLTISRLEPEDFAVYYCQQYAYWPLTFGQGTKVEIK	0.00101
A02_Rd4_0.6 nM_C09: anti-BCMA antibody (antibody, V domains shown) VH: EVQLLESGGGLVQPGGSLRLSCAASGFTFSSYAMNWVRQAPGKGLEWVSAISDSGGSMWYADSVKGRFTISRDNSKNTLYLQMNSLRAEDTAVYYCARYWPMSLWGQGTLVTVSS VL: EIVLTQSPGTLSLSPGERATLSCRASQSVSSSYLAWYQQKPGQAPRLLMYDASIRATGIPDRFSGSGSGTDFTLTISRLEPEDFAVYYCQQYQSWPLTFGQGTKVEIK	0.000174
COMBO_Rd4_0.6 nM_C11: anti-BCMA antibody (antibody, V domains shown) VH: EVQLLESGGGLVQPGGSLRLSCAASGFTFSSYPMSWVRQAPGKGLEWVSAALGSGGSTYYADSVKGRFTISRDNSKNTLYLQMNSLRAEDTAVYYCARYWPMSLWGQGTLVTVSS VL: EIVLTQSPGTLSLSPGERATLSCRASQSVSVRYLAWYQQKPGQAPRLLMYDASIRATGIPDRFSGSGSGTDFTLTISRLEPEDFAVYYCQQYGSWPITFGQGTKVEIK	0.00423

From here, focus on the item given below.
Could you tell me which kd Cyno is on file for COMBO_Rd4_6 nM_C22: anti-BCMA antibody (antibody, V domains shown) VH: EVQLLESGGGLVQPGGSLRLSCAASGFTFSSYAMNWVRQAPGKGLEWVSACLDSGGSTYYADSVKGRFTISRDNSKNTLYLQMNSLRAEDTAVYYCARYWPMDSWGQGTLVTVSS VL: EIVLTQSPGTLSLSPGERATLSCRASQSVSSSYLAWYQQKPGQAPRLLMYDASIRATGIPDRFSGSGSGTDFTLTISRLEPEDFAVYYCQQYQGWPLTFGQGTKVEIK ?
0.00165
